The measured values listed here are drawn from patent US6358885B1.

- Test system: giant foxtail
- assay.overview: Test B preemergence/postemergence greenhouse plant response rating 0 to 10
- Format: in vivo, Setaria faberii
- condition.label: Rate 200 g/ha, PREEMERGENCE; 0 to 10 scale
measurement.label: Plant response rating, Giant foxtail

compound="Clc1ccc(-c2nc3n(c2Cl)CCC=C3)c(Cl)c1 [Compound 1]" system_name="giant foxtail" measurement_label="Plant response rating, Giant foxtail" measured_result=0
compound="Fc1cc(Cl)c(OCCCl)cc1-c1nn2c(c1Cl)CCCC2 [Compound 49]" system_name="giant foxtail" measurement_label="Plant response rating, Giant foxtail" measured_result=10
compound="C#CC(C)Oc1cc(-c2nn3c(c2Cl)CCCC3)c(F)cc1Cl (stereo not drawn) [Compound 36]" system_name="giant foxtail" measurement_label="Plant response rating, Giant foxtail" measured_result=9
